# Subject Of Test: T1, alpha-s1 casein from Bos taurus
# T1 chain: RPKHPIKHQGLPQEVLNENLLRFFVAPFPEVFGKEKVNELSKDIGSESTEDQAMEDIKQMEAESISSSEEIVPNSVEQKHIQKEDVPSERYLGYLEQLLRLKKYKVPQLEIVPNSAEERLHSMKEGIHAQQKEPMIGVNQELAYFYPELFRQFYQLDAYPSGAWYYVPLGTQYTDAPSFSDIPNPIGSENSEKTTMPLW
Form field: αs1 CN, 24 hours, 11° C. (one value per entry).
Your reply should be a number followed by the unit it is expressed in.

Sample answers from the record:
camel chymosin variant #153 (D290L) (protein) GKVAREPLTSYLDSQYFGKIYIGTPPQEFTVVFDTGSSDLWVPSIYCKSNVCKNHHRFDPRKSSTFRNLGKPLSIHYGTGSMEGFLGYDTVTVSNIVDPNQTVGLSTEQPGEVFTYSEFDGILGLAYPSLASEYSVPVFDNMMDRHLVARDLFSVYMDRNGQGSMLTLGAIDPSYYTGSLHWVPVTLQQYWQFTVDSVTINGVAVACVGGCQAILDTGTSVLFGPSSDILKIQMAIGATENRYGEFDVNCGNLRSMPTVVFEINGRDYPLSPSAYTSKDQGFCTSGFQGLNNSELWILGDVFIREYYSVFDRANNRVGLAKAI : 7.1e+06 Volume
camel chymosin variant #137 (F223D) (protein) GKVAREPLTSYLDSQYFGKIYIGTPPQEFTVVFDTGSSDLWVPSIYCKSNVCKNHHRFDPRKSSTFRNLGKPLSIHYGTGSMEGFLGYDTVTVSNIVDPNQTVGLSTEQPGEVFTYSEFDGILGLAYPSLASEYSVPVFDNMMDRHLVARDLFSVYMDRNGQGSMLTLGAIDPSYYTGSLHWVPVTLQQYWQFTVDSVTINGVAVACVGGCQAILDTGTSVLDGPSSDILKIQMAIGATENRYGEFDVNCGNLRSMPTVVFEINGRDYPLSPSAYTSKDQGFCTSGFQGDNNSELWILGDVFIREYYSVFDRANNRVGLAKAI : 1.1e+07 Volume

Please examine the following record next.
Give the measured αs1 CN, 24 hours, 11° C. of camel chymosin variant #141 (F223N) (protein) GKVAREPLTSYLDSQYFGKIYIGTPPQEFTVVFDTGSSDLWVPSIYCKSNVCKNHHRFDPRKSSTFRNLGKPLSIHYGTGSMEGFLGYDTVTVSNIVDPNQTVGLSTEQPGEVFTYSEFDGILGLAYPSLASEYSVPVFDNMMDRHLVARDLFSVYMDRNGQGSMLTLGAIDPSYYTGSLHWVPVTLQQYWQFTVDSVTINGVAVACVGGCQAILDTGTSVLNGPSSDILKIQMAIGATENRYGEFDVNCGNLRSMPTVVFEINGRDYPLSPSAYTSKDQGFCTSGFQGDNNSELWILGDVFIREYYSVFDRANNRVGLAKAI .
1.27e+07 Volume

Data origin, for the record: patent US20150140169
